Data credit: BindingDB's records for doi:10.1016/j.bmcl.2004.06.042

molecular target: Hypoxanthine-guanine phosphoribosyltransferase (Trypanosoma cruzi); test: Inhibition of hypoxanthine-guanine phosphoribosyltransferase (TcHPRT)
metric_name: Ki (µM)

[[record]]
substance_smiles = "CN(C)CCC(O)(P(=O)(O)O)P(=O)(O)O"
metric_name = "Ki"
reported = 126

